Hello, the source for this data is patent US20240270751A1, in case you need it.

List of pIC50 tested on DGKα (Homo sapiens (Human), UniProt P23743).
Sequence (P23743 whole entry): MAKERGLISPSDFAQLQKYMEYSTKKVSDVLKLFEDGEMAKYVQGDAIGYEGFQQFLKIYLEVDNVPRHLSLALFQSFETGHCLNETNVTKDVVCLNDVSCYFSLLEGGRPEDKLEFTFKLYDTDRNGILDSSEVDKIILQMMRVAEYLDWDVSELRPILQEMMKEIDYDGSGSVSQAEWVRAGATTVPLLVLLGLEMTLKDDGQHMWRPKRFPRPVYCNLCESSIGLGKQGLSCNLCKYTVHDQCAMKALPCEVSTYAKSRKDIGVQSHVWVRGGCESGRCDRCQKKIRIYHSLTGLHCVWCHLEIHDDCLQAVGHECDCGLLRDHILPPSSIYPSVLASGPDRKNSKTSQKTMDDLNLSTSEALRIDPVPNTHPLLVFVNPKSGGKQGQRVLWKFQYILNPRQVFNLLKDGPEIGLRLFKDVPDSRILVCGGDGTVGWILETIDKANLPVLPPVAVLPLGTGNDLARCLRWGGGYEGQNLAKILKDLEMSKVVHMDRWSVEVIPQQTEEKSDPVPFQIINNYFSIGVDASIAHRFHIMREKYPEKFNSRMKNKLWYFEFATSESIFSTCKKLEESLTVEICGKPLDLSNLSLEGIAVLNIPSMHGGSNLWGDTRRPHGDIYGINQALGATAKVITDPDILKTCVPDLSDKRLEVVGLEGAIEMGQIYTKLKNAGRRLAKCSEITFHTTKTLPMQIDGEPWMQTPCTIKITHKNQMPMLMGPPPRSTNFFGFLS
pIC50: −log10 of the molar value.

>  <COMPOUND>
CC#CCn1cc2c(n1)c(N1C[C@@H](CC)N(C(C)c3ccc(C(F)(F)F)cc3F)C[C@@H]1CC)cc(=O)n2C (single isomer, unassigned) [Compound A334b]

>  <RESULT QUALIFIER>
=

>  <pIC50>
6.05

$$$$
>  <COMPOUND>
CC[C@H]1CN(C2CCc3ccccc32)[C@H](CC)CN1c1cc(=O)n(C)c2cn(CC#N)nc12 (single isomer, unassigned) [Compound A149a]

>  <RESULT QUALIFIER>
=

>  <pIC50>
5.39

$$$$
>  <COMPOUND>
CC[C@@H]1CN(c2cc(=O)n(C)c3cn(CC#N)nc23)CCN1C(C)c1ccc2nccnc2c1 (single isomer, unassigned) [Compound A161b]

>  <RESULT QUALIFIER>
=

>  <pIC50>
4.11

$$$$
>  <COMPOUND>
CC#CCn1cc2c(n1)c(N1C[C@@H](C)N([C@H](C)c3ccc4nccnc4c3)C[C@@H]1C)cc(=O)n2C [Compound A22a]

>  <RESULT QUALIFIER>
=

>  <pIC50>
5.96

$$$$
>  <COMPOUND>
CC[C@H]1CN(C(C)c2cc3ccccn3n2)[C@H](CC)CN1c1cc(=O)n(C)c2cn(CC#N)nc12 (stereo partly drawn)

>  <RESULT QUALIFIER>
=

>  <pIC50>
7.37

$$$$
>  <COMPOUND>
CC(c1ccc(F)cc1C(F)(F)F)N1C[C@H](C)N(c2cc(=O)n(C)c3cn(CC#N)nc23)C[C@H]1C (single isomer, unassigned) [Compound A236a]

>  <RESULT QUALIFIER>
<

>  <pIC50>
5.00

$$$$
